Tested on: T1, recombinant human ROR1 extracellular domain (human, UniProt Q01973 30-406)
T1 construct: biotinylated for the filter lifts; also called huROR1-ECD; human ROR1-ECD
T1 sequence (Q01973 30-406 limits assumed): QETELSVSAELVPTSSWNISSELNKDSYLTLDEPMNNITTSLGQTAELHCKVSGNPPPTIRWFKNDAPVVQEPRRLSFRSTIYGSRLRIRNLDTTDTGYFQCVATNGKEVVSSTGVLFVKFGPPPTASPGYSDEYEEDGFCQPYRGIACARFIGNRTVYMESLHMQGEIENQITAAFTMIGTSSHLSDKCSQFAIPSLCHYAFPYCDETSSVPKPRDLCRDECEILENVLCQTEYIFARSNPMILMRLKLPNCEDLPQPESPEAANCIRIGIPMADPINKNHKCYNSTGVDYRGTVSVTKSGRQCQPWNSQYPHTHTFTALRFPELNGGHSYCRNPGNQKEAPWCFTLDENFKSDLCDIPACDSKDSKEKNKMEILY
Procedure details: ELISA with prolonged wash, soluble Fab on coated huROR1-ECD
Procedure: The previously described filter lift assay provides a visual, qualitative assessment of antigen binding (Example 1). In order to assess the ROR1 binding activity of Ab1 Fab in a more quantitative fashion, an ELISA assay was developed. A 96-well Costar-3366 plate was coated with 50 μL/well of 1 μg/mL human ROR1-ECD (ACROBiosystems, cat. #RO1-H522y) in PBS overnight at 4° C. […] The reaction was terminated by the addition of 2 N H2504 and the A450 was determined using a Spectramax plate reader. […]
Recorded endpoint: Kd (nM)
# value in nM; strip the unit string

Check out these entries, answers already filled in.
Ab1 Fab variant H1 T32A + L2 T69R (Fab, V domains shown, Fab) VH: QVQLQESGPGLVKPSQTLSLTCTVSGYAFAAYNIHWVRQAPGQGLEWMGSFDPYDGGSSYNQKFKDRLTISKDTSKNQVVLTMTNMDPVDTATYYCARGWYYFDYWGHGTLVTVSS VL: DIVMTQTPLSLPVTPGEPASISCRASKSISKYLAWYQQKPGQAPRLLIYSGSRLQSGIPPRFSGSGYGTDFTLTINNIESEDAAYYFCQQHDESPYTFGEGTKVEIK | 1.1
Ab1 Fab variant H1 T32A + L2 L70K (Fab, V domains shown, Fab) VH: QVQLQESGPGLVKPSQTLSLTCTVSGYAFAAYNIHWVRQAPGQGLEWMGSFDPYDGGSSYNQKFKDRLTISKDTSKNQVVLTMTNMDPVDTATYYCARGWYYFDYWGHGTLVTVSS VL: DIVMTQTPLSLPVTPGEPASISCRASKSISKYLAWYQQKPGQAPRLLIYSGSTKQSGIPPRFSGSGYGTDFTLTINNIESEDAAYYFCQQHDESPYTFGEGTKVEIK | 1.6
Ab1 Fab variant H1 T32A + L2 T69H (Fab, V domains shown, Fab) VH: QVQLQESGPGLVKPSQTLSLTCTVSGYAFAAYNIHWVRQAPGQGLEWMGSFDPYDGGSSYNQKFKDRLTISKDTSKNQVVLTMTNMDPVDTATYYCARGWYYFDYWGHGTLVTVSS VL: DIVMTQTPLSLPVTPGEPASISCRASKSISKYLAWYQQKPGQAPRLLIYSGSHLQSGIPPRFSGSGYGTDFTLTINNIESEDAAYYFCQQHDESPYTFGEGTKVEIK | 2.3

Exercise: Provide measured Kd value, entry: Ab1 Fab variant H1 T32A + L2 T69H, L70K, Q71T (Fab, V domains shown, Fab) VH: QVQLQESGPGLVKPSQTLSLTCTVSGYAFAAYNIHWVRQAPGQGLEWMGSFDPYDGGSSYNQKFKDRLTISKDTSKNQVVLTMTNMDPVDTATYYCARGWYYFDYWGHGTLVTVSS VL: DIVMTQTPLSLPVTPGEPASISCRASKSISKYLAWYQQKPGQAPRLLIYSGSHKTSGIPPRFSGSGYGTDFTLTINNIESEDAAYYFCQQHDESPYTFGEGTKVEIK
Solution: 1.4

Exercise: Determine from records and report Kd for Ab1 Fab variant H1 T32A + L2 T69H, L70K (Fab, V domains shown, Fab) VH: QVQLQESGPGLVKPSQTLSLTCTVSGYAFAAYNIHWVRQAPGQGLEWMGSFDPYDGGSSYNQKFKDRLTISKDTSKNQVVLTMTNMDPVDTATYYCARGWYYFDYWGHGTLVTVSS VL: DIVMTQTPLSLPVTPGEPASISCRASKSISKYLAWYQQKPGQAPRLLIYSGSHKQSGIPPRFSGSGYGTDFTLTINNIESEDAAYYFCQQHDESPYTFGEGTKVEIK
Solution: 1.8

Exercise: State its Kd for this binder: Ab1 Fab variant H1 T32A + L2 T69R, Q71T (Fab, V domains shown, Fab) VH: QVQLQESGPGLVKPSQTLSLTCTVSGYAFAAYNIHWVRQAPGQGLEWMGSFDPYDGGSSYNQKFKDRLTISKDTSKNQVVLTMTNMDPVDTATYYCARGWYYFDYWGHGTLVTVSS VL: DIVMTQTPLSLPVTPGEPASISCRASKSISKYLAWYQQKPGQAPRLLIYSGSRLTSGIPPRFSGSGYGTDFTLTINNIESEDAAYYFCQQHDESPYTFGEGTKVEIK
Solution: 1.1

Exercise: Kindly indicate its recorded Kd. Item: Ab1 Fab variant H1 T32A + L2 L70K, Q71T (Fab, V domains shown, Fab) VH: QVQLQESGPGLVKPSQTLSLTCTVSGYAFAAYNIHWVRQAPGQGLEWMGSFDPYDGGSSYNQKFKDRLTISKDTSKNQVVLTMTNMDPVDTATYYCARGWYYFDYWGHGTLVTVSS VL: DIVMTQTPLSLPVTPGEPASISCRASKSISKYLAWYQQKPGQAPRLLIYSGSTKTSGIPPRFSGSGYGTDFTLTINNIESEDAAYYFCQQHDESPYTFGEGTKVEIK
Solution: 1.6

Exercise: Answer with reported Kd of Ab1 Fab variant H1 T32A (Fab, V domains shown, Fab) VH: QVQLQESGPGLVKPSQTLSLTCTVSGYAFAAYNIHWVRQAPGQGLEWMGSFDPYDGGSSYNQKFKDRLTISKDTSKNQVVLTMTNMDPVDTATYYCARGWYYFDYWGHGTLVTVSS VL: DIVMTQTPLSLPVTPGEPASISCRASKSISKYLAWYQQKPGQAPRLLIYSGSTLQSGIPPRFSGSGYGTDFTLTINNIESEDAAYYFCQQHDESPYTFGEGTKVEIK
Solution: 3
